- measurement-protocol: Antiproliferative activity against human HaCaT cells assessed as reduction in cell viability measured after 48 hrs by colorimetric based MTT assay
Measured IC50 at 48 h accompanies every entry in the list below.
attribute-measured: IC50 at 48 h

compound=C=C1C(=O)O[C@H]([C@H]2C(=O)C=C[C@]2(C)O)[C@@H]1CCC(C)=O result="> 10 µM"
compound="C=C1C(=O)O[C@H]2[C@H]1C[C@H](OC(C)=O)[C@](C)(O)[C@@]1(O)[C@@H](O)[C@H]3O[C@@]3(C)[C@H]21 (relative stereo)" result="> 10 µM"
compound=C=C1C(=O)O[C@@H]2[C@H]1C[C@@H](OC(C)=O)[C@@](C)(O)[C@]13O[C@H]1[C@@H](Cl)[C@](C)(O)[C@H]23 result="3.5 µM"
compound=C=C1[C@@H]2[C@H]3OC(=O)C(COC(C)=O)=C3CC[C@@]2(C)[C@H](O)C[C@@H]1O result="> 10 µM"
compound="C=C1C(=O)O[C@@H]2C1C[C@@H](OC(C)=O)[C@](C)(O)[C@@]13C=C[C@@](C)(OO1)C23 (some centres not stated)" result="1.7 µM"
compound="CC(C)(O)/C=C/[C@H]1OC(=O)C[C@]1(C)O (relative stereo)" result="> 10 µM"
compound="C=C1C(=O)O[C@@H]2C1C[C@@H](OC(C)=O)[C@@](C)(O)[C@@]13O[C@@H]1[C@@H]1O[C@]1(C)[C@H]23 (some centres not stated)" result="1.6 µM"
compound="C[C@H]1CC[C@]23O[C@]12C[C@H](C(C)(C)O)CC[C@@]3(C)O (relative stereo)" result="> 10 µM"
compound=C=C1[C@@H]2[C@@H](OC(C)=O)/C(=C(\CO)C(=O)O)CC[C@@]2(C)[C@H](O)C[C@@H]1O result="> 10 µM"
compound=C=C1C(=O)O[C@H](C2=C(C)[C@@H](O)CC2=O)[C@@H]1CCC(C)=O result="2.9 µM"
compound="CC(=O)O[C@@H]1CC(C)=C2C(=O)C=C(C)[C@@H]2[C@@H](O)[C@H]1C(C)C(=O)O (relative stereo)" result="> 10 µM"
compound="C=C(C)[C@@H](O)CC[C@@H](C)C1C[C@H](O)C(C)=C[C@@H]1O (relative stereo)" result="> 10 µM"
